SYK (Homo sapiens, UniProt P43405) IC50 data

Check out these entries, answers already filled in.
IC50 lookup needed for CC1(C)C(=O)Nc2cc(Nc3nc4c(N5CCC(S(N)(=O)=O)CC5)nccn4n3)ccc21 [E39] , thanks.
< 100 nM

And then CC1(C)C(=O)Nc2cc(Nc3nc4c(N5CCc6nc(O)nc(O)c6C5)nccn4n3)ccc21 [E1] , what is it?
< 100 nM

And then COc1cc(Nc2nc3c(N4CCC(NS(C)(=O)=O)CC4)nccn3n2)cc(OC)c1 [C53] , what is it?
300 to 3000 nM

And then CC1(C)C(=O)Nc2cc(Nc3nc4c(N5CCCC(C(N)=O)C5)nccn4n3)ccc21 (stereo not drawn) [E113] , what is it?
< 100 nM

And then CC1(C)C(=O)Nc2cc(Nc3nc4c(N5CC(O)C5)nccn4n3)ccc21 [C74] , what is it?
100 to 300 nM

And then CN(C)Cc1nc2ccc(Nc3nc4c(-c5cnn(C)c5)nccn4n3)cc2[nH]1 [C33] , what is it?
100 to 300 nM

And then CN(C)CCN(C)c1nccn2nc(Nc3ccc4c(c3)NC(=O)C4(C)C)nc12 [E89] , what is it?
300 to 3000 nM

And then COc1cc(Nc2nc3c(N4CCCC(C(N)=O)C4)nccn3n2)cc(OC)c1 (stereo not drawn) [D2] , what is it?
300 to 3000 nM

Others:
IC50 lookup needed for CC1(C)C(=O)Nc2cc(Nc3nc4c(N5CCc6ccc(C#N)cc65)nccn4n3)ccc21 [E134] , thanks.
< 100 nM
